# System: NCI-H460
# assay-notes: NCI tumour cell line growth inhibition, 48 h
The source made the active and inactive calls. Rule as the data show it: active = GI50 up to about 1.1 µM and inactive = higher.
Select the matching outcome among yes (1) for active, no (0) for inactive

Here's what some known entries look like.
* CC1CCCc2c(CC3CC(=O)NC(=O)C3)n[nH]c21 (configuration not stated) | no (0)
* CC(=O)O[C@H]1C[C@H](O[C@H]2[C@@H](O)C[C@H](O[C@H]3[C@@H](O)C[C@H](O[C@H]4CC[C@@]5(C)[C@H](CC[C@@H]6[C@@H]5CC[C@]5(O)[C@@H](C7=CC(=O)OC7)CC[C@]65O)C4)O[C@@H]3C)O[C@@H]2C)O[C@H](C)[C@H]1O[C@@H]1O[C@H](CO)[C@@H](O)[C@H](O)[C@H]1O | yes (1)
* O=C1C(=O)N(C(=O)c2ccc(Cl)c(Cl)c2)c2ccc(Cl)cc21 | no (0)
* COC(=O)C1=C(O)C(C(=O)OC)[C@]2(O)[C@H](C(=O)OC)[C@H]1C[C@@H](c1cccc(OC)c1)[C@H]2C(=O)OC (some centres not stated) | no (0)
* CCc1ccccc1NC(=O)/C(=N/O)C(C)=O | no (0)
* CCOC(=O)c1c(C)n(C)c2c1cc(O)c1[nH]c3c(c12)CCCC3 | no (0)

Asked: How did this test come out for CCOC(=O)C(=[N+]=[N-])C(=O)C1(C(=O)OCC)CCN(C(=O)c2ccccc2)C1=O (configuration not stated) ?
Given back: no (0)

Asked: Could you kindly confirm the outcome this assay logged for c1ccc(CCCNc2nnnc3ccccc23)cc1 ?
Given back: no (0)

Asked: Query: recorded result category for COC(=O)/C(=C\c1ccco1)P(=O)(OC)OC in this test
Given back: no (0)

Asked: State the result this test recorded for [N-]=[N+]=Nc1c(Cl)c(Cl)nc2ccccc12 .
Given back: no (0)

Asked: Recorded test outcome, item COC(=O)C(C(=O)Cc1ccccc1[N+](=O)[O-])C(=O)OC
Given back: no (0)

Asked: Field: outcome | Entry: COC1(C(C)(C)C)C=C(C(C)(C)C)P(=O)(O)O1 (configuration not stated)
Given back: no (0)

Asked: Which outcome did this test record for the compound COc1cc(C(=O)NNC(=O)c2cc(Br)ccc2NC(=O)c2cccs2)cc(OC)c1OC ?
Given back: no (0)

Asked: # fetch the recorded call for O=C(c1ccccc1)C1C(c2ccccc2[N+](=O)[O-])N1C1CCCCC1 (configuration not stated) here
Given back: no (0)

Asked: // param item: CC(=O)OCC1OC(OC2C(COC(C)=O)OC(Sc3ccccc3C)C(OC(C)=O)C2OC(C)=O)C(OC(C)=O)C(OC(C)=O)C1OC(C)=O (configuration not stated) ; yields the recorded call
Given back: no (0)

Asked: Dear all, I need the recorded test outcome for O=[N+]([O-])c1ccc(/C(Cl)=C/c2ccc(/C=C(\Cl)c3ccc([N+](=O)[O-])cc3[N+](=O)[O-])cc2)c([N+](=O)[O-])c1 , thank you.
Given back: no (0)

Asked: Given C[N+](C)(C)CC(=O)N/N=C(\C(=O)Nc1ccc(Cl)cc1)C1C(=O)N(c2ccccc2)N=C1N (configuration not stated) , state the outcome it received in this test.
Given back: no (0)
